Several publications report Kd on Adenosine receptor A1 (Homo sapiens, UniProt P30542); those values are gathered here.
Sequence (P30542 whole entry): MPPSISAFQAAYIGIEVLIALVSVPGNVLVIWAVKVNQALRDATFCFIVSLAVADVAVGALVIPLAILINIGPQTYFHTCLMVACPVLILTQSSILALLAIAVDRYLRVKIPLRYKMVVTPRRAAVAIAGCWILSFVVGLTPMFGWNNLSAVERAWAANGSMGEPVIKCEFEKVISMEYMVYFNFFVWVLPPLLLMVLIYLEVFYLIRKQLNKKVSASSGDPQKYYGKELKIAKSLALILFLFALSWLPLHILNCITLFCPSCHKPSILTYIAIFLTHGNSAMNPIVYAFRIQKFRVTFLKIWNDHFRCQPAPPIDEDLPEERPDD
QUANTITY MEASURED: Kd (µM)

Some solved entries appear below for comparison.
{"columns": ["ENTRY SMILES", "TEST TARGET", "QUANTITY MEASURED", "VALUE UNITS", "ASSAY RESULT"],
 "data": [
  ["O=C(Nc1ccccc1)Nc1ccccn1", "Adenosine receptor A1 (Homo sapiens, UniProt P30542)", "Kd", "µM", 41],
  ["CC(C)Cn1c(=O)n(C)c(=O)c2[nH]cnc21", "Adenosine receptor A1 (Homo sapiens, UniProt P30542)", "Kd", "µM", 5.9],
  ["Nc1nc(N)nc(-c2ccccc2)n1", "Adenosine receptor A1 (Homo sapiens, UniProt P30542)", "Kd", "µM", 2.21],
  ["O=C(Nc1ccc2ccccc2n1)c1ccco1", "Adenosine receptor A1 (Homo sapiens, UniProt P30542)", "Kd", "µM", 59],
  ["Nc1nc(-c2ccccc2)ns1", "Adenosine receptor A1 (Homo sapiens, UniProt P30542)", "Kd", "µM", 51.7]
]}

[a] Nc1nncc(-c2ccc(Br)cc2)n1
[b] O=C(Nc1n[nH]c2nc(-c3ccco3)c(Br)cc12)C1CC1
[c] CC(C)NC(=O)c1cc(-c2ccccc2)[nH]n1
Prompt: Provide the items ranked by increasing Kd. To answer, write out the labels according to the requested order.
Response: a, b, c

[I] Cc1nn(-c2ccccc2)nc1C(N)=O
[II] CCCn1c(=O)c2nc(C3CCCC3)[nH]c2n(CCC[18F])c1=O
Prompt: Hi team, can someone confirm which has the larger Kd: I or II ? Thanks. Write down the label attached to your selection.
Response: I
